TEST SYSTEM: human PDE10A (UniProt Q9Y233)
Sequence (Q9Y233 290-1055 limits assumed): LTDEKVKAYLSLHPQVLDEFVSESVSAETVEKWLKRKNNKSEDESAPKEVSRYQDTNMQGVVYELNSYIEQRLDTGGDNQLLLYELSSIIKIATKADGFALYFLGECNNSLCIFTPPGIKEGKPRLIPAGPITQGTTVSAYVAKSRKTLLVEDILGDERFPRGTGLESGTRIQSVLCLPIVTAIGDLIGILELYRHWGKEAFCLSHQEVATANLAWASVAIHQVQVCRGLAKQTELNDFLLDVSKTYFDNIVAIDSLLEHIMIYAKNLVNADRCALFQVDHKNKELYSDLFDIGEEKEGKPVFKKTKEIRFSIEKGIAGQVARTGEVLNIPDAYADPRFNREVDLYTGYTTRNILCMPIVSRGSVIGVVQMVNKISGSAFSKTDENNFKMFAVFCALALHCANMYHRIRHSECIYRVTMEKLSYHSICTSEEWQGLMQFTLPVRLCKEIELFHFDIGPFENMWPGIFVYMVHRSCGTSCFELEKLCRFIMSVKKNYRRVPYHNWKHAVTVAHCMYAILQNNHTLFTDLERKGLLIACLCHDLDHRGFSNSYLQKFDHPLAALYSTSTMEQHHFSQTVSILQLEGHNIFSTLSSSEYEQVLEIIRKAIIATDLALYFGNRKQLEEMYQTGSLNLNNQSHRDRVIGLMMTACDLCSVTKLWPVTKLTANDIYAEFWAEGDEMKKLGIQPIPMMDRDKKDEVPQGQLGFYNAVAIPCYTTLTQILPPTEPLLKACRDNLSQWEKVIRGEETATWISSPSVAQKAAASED
RUN DESCRIPTION: Measurement of PDE activity (recombinant enzyme, HTRF cAMP kit)
Format: biochemical
TEST CONTEXT: Table 1, substrate 20 nM for PDE10, 60 minutes at 29 C, read-out: IC50
Method: The recombinant PDE proteins are used in in vitro enzymatic reaction for measurement of PDE activity. […] The enzymatic activity of PDEs was determined by cAMP measurement kit from CisBio (IBA) using HTRF technology. The PDE enzymatic reaction was carried out in assay buffer (20 mM Tris-HCl pH7.5, 10 mM MgCl2, 0.1% bovine serum albumin) containing enzyme and substrate. […] The inhibitory effect of compound was determined by incubating various concentration of inhibitor in the enzymatic assay. […]
pIC50: −log10 of the molar value.
READOUT: pIC50

Name the recorded pIC50 of the compound listed here: `O=c1c2c(NC3CCOCC3)cccc2cnn1CCc1cn2ccccc2n1`
6.70 to 7.00

Return reported pIC50. Input compound: `Cn1ccc(-c2cccc3cnn(CCc4cn5ccccc5n4)c(=O)c23)n1`
6.30 to 6.70
